Target: SARM1 (50-724) (Homo sapiens, UniProt Q6SZW1)
Sequence (Q6SZW1 50-724): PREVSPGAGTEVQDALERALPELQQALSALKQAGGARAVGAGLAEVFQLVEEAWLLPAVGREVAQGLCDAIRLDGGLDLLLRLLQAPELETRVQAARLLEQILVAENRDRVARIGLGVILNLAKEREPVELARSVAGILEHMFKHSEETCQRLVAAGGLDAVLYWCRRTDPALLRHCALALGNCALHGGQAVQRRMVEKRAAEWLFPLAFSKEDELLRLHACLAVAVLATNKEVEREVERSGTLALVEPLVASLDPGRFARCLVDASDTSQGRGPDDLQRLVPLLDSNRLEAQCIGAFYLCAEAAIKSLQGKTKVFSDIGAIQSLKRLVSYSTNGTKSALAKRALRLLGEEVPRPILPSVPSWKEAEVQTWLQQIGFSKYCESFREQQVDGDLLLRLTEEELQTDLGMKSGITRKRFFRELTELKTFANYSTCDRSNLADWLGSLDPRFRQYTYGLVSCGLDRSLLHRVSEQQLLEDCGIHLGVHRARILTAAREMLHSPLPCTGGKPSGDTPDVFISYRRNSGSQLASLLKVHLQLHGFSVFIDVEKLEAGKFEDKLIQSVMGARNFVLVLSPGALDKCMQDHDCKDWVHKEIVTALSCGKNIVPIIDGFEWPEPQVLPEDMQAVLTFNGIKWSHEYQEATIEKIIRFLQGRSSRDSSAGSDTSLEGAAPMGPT
Assay: biochemical
pIC50: −log10 of the molar value.
Recorded pIC50 for the following compounds

Req: Any idea what its pIC50 is? The compound is CCC(Nc1ccc2c(c1)C(=O)NCN2)c1cccc(Cl)c1Cl (racemic) [Example 147]
Resp: 6.30 to 7.00

Req: Any idea what its pIC50 is? The compound is CC1CCCN(S(=O)(=O)Nc2ccc3c(c2)C(=O)NCC3)C1 (racemic) [Example 169]
Resp: < 6.00

Req: Any idea what its pIC50 is? The compound is O=C1NC(CO)CCc2ccc(NS(=O)(=O)c3cccc(Cl)c3Cl)cc21 (single isomer, unassigned) [Compound 304]
Resp: > 7.00

Req: Any idea what its pIC50 is? The compound is CC1(C)CNC(=O)c2cc(NS(=O)(=O)c3cccc(Cl)c3Cl)ccc21 [Compound 265]
Resp: > 7.00

Req: Any idea what its pIC50 is? The compound is CC1(C)C(=O)N(CC2CNC(=O)CO2)c2cc(NS(=O)(=O)c3cccc(Cl)c3Cl)ccc21 (stereo not drawn) [Compound 333]
Resp: > 7.00
